These data points were gathered from BindingDB's records for PubMed 8100350.

# study-target: UniProt P30875
# Sequence (P30875 whole entry): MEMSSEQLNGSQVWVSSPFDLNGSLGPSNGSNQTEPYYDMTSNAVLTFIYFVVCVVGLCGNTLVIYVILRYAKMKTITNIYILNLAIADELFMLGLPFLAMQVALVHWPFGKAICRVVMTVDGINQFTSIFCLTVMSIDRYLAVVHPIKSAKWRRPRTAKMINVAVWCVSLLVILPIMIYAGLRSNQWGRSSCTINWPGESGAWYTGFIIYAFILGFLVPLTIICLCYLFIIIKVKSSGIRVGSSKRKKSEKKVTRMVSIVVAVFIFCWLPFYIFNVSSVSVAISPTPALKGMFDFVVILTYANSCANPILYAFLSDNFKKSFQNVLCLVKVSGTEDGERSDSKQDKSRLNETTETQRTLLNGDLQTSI
Where a SMILES comes first, the peptide text is derived from it. [ ]: non-standard residue; d: D form. The star is where a group is joined. ξ: configuration not given here. Phe(4-Cl) = N[C@@H](Cc1ccc(Cl)cc1)C(=O)O; 1Nal = N[C@@H](Cc1cccc2ccccc12)C(=O)O; 2Nal = N[C@@H](Cc1ccc2ccccc2c1)C(=O)O; Thr(3ξ) = CC(O)[C@H](N)C(=O)O; Aoc = NCCCCCCCC(=O)O; Ahp = NCCCCCCC(=O)O; Bn = c1ccc(C*)cc1
reported-property: Ki (nM)
# output: bare number, implied unit nM

Answered examples (5):
compound | reported-property | units-label | test-value
NCCCC[C@@H]1NC(=O)[C@@H](Cc2c[nH]c3ccccc23)NC(=O)[C@H](Cc2ccccc2)NC(=O)CCCCCCNC(=O)[C@H](COCc2ccccc2)NC1=O [c[Aha-Phe-D-Trp-Lys-Ser(Bzl)]] (cyclo([Ahp]F[dW]KS(Bn))) | Ki | nM | 1000
C[C@@H]1NC(=O)[C@@H]2CCCN2C(=O)[C@H](Cc2ccccc2)NC(=O)[C@H]([C@@H](C)O)NC(=O)[C@H](CCCCN)NC(=O)[C@@H](Cc2c[nH]c3ccccc23)NC1=O [cyclo(Pro-Ala-Trp-Lys-Thr-Phe)] (cyclo(A[dW]KTFP)) | Ki | nM | 356
C[C@@H](OCc1ccccc1)[C@@H]1NC(=O)[C@H](CCCCN)NC(=O)[C@@H](Cc2c[nH]c3ccccc23)NC(=O)[C@H](Cc2ccccc2)NC(=O)CCCCCCCNC1=O [c[Aoc-Phe-D-Trp-Lys-Thr(Bzl)]] (cyclo([Aoc]F[dW]KT(Bn))) | Ki | nM | 1000
C[C@@H](O)[C@H](NC(=O)[C@H](Cc1ccccc1)NC(=O)[C@@H](NC(=O)[C@H](CCCCN)NC(=O)[C@@H](Cc1c[nH]c2ccccc12)NC(=O)[C@H](Cc1ccc(O)cc1)NC(=O)[C@H](Cc1ccc(Cl)cc1)NC(=O)[C@H](N)Cc1ccccc1)[C@@H](C)O)C(N)=O [BIM 23068] (H-[dF][Phe(4-Cl)]Y[dW]KTFT-NH2) | Ki | nM | 0.15
CC(O)[C@H](NC(=O)[C@H](CCCCN)NC(=O)[C@@H](Cc1c[nH]c2ccccc12)NC(=O)[C@H](Cc1ccccc1)NC(=O)[C@@H](C)NC(=O)[C@@H](N)Cc1ccccc1)C(=O)N[C@@H](C)C(=O)N[C@H](C(N)=O)[C@@H](C)O (some centres undefined) [BIM 23051] (H-F[dA]F[dW]K[Thr(3ξ)]AT-NH2) | Ki | nM | 836

## Input Specify the recorded Ki for CC(C)[C@H](NC(=O)[C@H](CCCCN)NC(=O)[C@@H](Cc1c[nH]c2ccccc12)NC(=O)[C@H](Cc1ccc(O)cc1)NC(=O)[C@H](C)NC(=O)[C@H](N)Cc1ccccc1)C(=O)N[C@@H](C)C(=O)N[C@@H](Cc1ccc2ccccc2c1)C(N)=O (H-[dF]AY[dW]KVA[2Nal]-NH2) , system: UniProt P30875.
## Output 6.1

## Input Provide Ki, recorded with UniProt P30875, of CC(O)[C@H](NC(=O)[C@H](CCCCN)NC(=O)[C@@H](Cc1c[nH]c2ccccc12)NC(=O)[C@H](Cc1ccc(O)cc1)NC(=O)[C@@H](C)NC(=O)[C@@H](N)Cc1ccccc1)C(=O)N[C@@H](C)C(=O)N[C@@H](Cc1cccc2ccccc12)C(N)=O (some centres undefined) [BIM 23070] (H-F[dA]Y[dW]K[Thr(3ξ)]A[1Nal]-NH2)
## Output 7.8

## Input Report measured Ki on UniProt P30875; entry: CC(C)[C@H](NC(=O)[C@H](CCCCN)NC(=O)[C@@H](Cc1c[nH]c2ccccc12)NC(=O)[C@H](Cc1ccc(O)cc1)NC(=O)[C@H](Cc1ccc(Cl)cc1)NC(=O)[C@@H](N)Cc1ccccc1)C(=O)N[C@@H](Cc1ccccc1)C(=O)N[C@@H](Cc1ccc2ccccc2c1)C(N)=O [BIM 23063] (H-F[Phe(4-Cl)]Y[dW]KVF[2Nal]-NH2)
## Output 248
